system: ABL1 (human), P00519 [T315I]; test: Caliper, Mobility shift assay off-chip; conditions: compound 0.1 µM
Parameter measured: inhibition (%)

A. O=c1c2cc(CS(=O)(=O)NCc3ccccn3)ccc2ccc2ncc(C3CCNCC3)cc12
B. Cn1cc(-c2cnc3ccc4ccc(CS(=O)(=O)NCC5CCCCN5)cc4c(=O)c3c2)cn1 (stereo not given)
C. Cn1cc(-c2cnc3ccc4ccc(CS(=O)(=O)NC5CCCCC5)cc4c(=O)c3c2)cn1
D. Cn1cc(-c2cnc3ccc4ccc(CS(N)(=O)=O)cc4c(=O)c3c2)cn1
E. Cn1cc(-c2cnc3ccc4ccc(CS(=O)(=O)CCc5ccccn5)cc4c(=O)c3c2)cn1
Query: Could you arrange the 5 compounds above by inhibition, starting with the largest number? Return the labels ranked in the requested order, please.
Reply: E, B, D, C, A
